MEASUREMENT_KIND: melting point

Worked cases, answers included:
> print(dat)
                              smiles.record       observed
1  Cc1ccc(S(=O)(=O)Nc2ccc(CCNC(=O)c3cc4cc(O)ccc4cc3O)cc2)cc1  182 to 184 °C
2  O=C(NCCc1ccc([N+](=O)[O-])cc1)c1cc2cc(O)ccc2cc1O       > 250 °C
3  CS(=O)(=O)N1CCN(C(=O)c2cc3cc(O)ccc3cc2O)CC1  124 to 126 °C
4  CCOP(=O)(OCC)Oc1ccc(CCNC(=O)c2cc3cc(O)ccc3cc2O)cc1  192 to 194 °C

Here is another compound to look at.
Endpoint output: melting point of Cc1ccc(S(=O)(=O)N2CCN(C(=O)c3cc4cc(O)ccc4cc3O)CC2)cc1 . Value?
135 to 137 °C

---

MEASUREMENT_KIND: melting point

Endpoint output: melting point of COc1cc(N(C)C)cc(CN(C)CCc2ccc([N+](=O)[O-])cc2)c1O [Example 1] . Value?
91 to 93 °C

Endpoint output: melting point of CN1CCN(c2ccc(NC(=O)CCCc3ccc(N)cc3)cc2)CC1.Cl [Example 5] . Value?
156 to 158 °C

Endpoint output: melting point of CCCCS(=O)(=O)Nc1ccc(CCNC(=O)c2cc3cc(O)ccc3cc2O)cc1 [Example 17] . Value?
193 to 195 °C

Endpoint output: melting point of CN(C)c1ccccc1NC(=O)CCCCc1ccc(/N=C(/N)c2cccs2)cc1.Cl [Example 30] . Value?
145 to 148 °C

Endpoint output: melting point of CS(=O)(=O)Nc1ccc(CCNC(=O)c2cc3cc(O)ccc3cc2O)cc1 [Example 16] . Value?
176 to 178 °C

Endpoint output: melting point of CCCCS(=O)(=O)N1CCN(C(=O)c2cc3cc(O)ccc3cc2O)CC1 [Example 33] . Value?
105 to 110 °C
